Overview of recorded protein stability index for various variants
B1: SOAT1 (parent)
chain: PSNGRIDIKQLIAKKIKLTAEAEE

- Variants of: B1
- assay comment: protein stability index of a GFP-peptide fusion (GPS, HEK-293T) (PSI 1-6); higher = more stable;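 note: lentivirally expressed fusions sorted by FACS into six bins by GFP to DsRed ratio, PSI derived from sequencing read proportions per bin multiplied by bin number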
- condition info: c terminus: a fixed tail appended

[[record]]
mutation_id = "K17V"
assay_readout = "protein stability index"
result = 3.38


Identify measured protein stability index associated with "E21L"
2.96

Identify measured protein stability index associated with "G4A"
3.77

Identify measured protein stability index associated with "T19E"
3.88

Identify measured protein stability index associated with "E21M"
2.4

Identify measured protein stability index associated with "K9A"
3.04
